Consider the following compounds; for each one, report its Total Cell Count.
- Test system: Fibroblast
- protocol notes: Multiplex assay against human fibroblast
- Type: toxicity, cell-based
- conditions used: 48 h, 10 µM, compound concentration 10 uM, replicate 1
Give bare numbers.

Sample records with Total Cell Count:
compound	Total Cell Count
Cc1c(Cc2ccc3ccccc3n2)c2cc(F)ccc2n1CC(=O)O	152
CCC(=O)OCC(=O)[C@@]1(OC(=O)CC)[C@@H](C)C[C@H]2[C@@H]3CCC4=CC(=O)C=C[C@]4(C)[C@@]3(Cl)[C@@H](O)C[C@@]21C [BECLOMETHASONE DIPROPIONATE]	162
Cc1ccc(OCC(O)C(C)NC(C)C)c2c1CCC2.Cl (centres undefined)	155

We next turn to a different compound, shown below.
Supply reported Total Cell Count belonging to this compound: COCCCN1CCC(NC(=O)c2cc(Cl)c(N)c3c2OCC3)CC1 [PRUCALOPRIDE]
136

Hey, just so you know, these numbers are from ChEMBL document CHEMBL5058577.
